Sourced from ChEMBL document CHEMBL5291721

Molecular target: Alpha-1A adrenergic receptor (Homo sapiens, UniProt P35348); further: assay procedure not described here
Sequence (P35348 whole entry): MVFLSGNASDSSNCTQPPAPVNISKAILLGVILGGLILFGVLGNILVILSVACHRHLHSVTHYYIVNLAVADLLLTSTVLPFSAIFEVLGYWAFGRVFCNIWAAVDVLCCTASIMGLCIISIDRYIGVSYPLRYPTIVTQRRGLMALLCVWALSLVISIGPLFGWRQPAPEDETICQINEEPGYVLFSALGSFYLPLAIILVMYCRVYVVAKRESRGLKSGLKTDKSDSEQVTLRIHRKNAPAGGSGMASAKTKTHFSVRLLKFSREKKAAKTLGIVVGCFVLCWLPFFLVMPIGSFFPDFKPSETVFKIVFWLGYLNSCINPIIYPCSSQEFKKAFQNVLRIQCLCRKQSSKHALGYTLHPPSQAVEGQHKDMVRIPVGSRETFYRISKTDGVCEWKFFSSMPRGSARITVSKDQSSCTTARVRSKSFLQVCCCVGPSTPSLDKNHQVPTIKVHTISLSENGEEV
Type: functional, cell-based
So I've got a bunch of compounds here, and I need their AC50 values.

Briefly, AC50 measured for CC[C@H]1OC(=O)[C@H](C)C(=O)[C@H](C)[C@@H](O[C@@H]2O[C@H](C)C[C@H](N(C)C)[C@H]2O)[C@](C)(OC)C[C@@H](C)C(=O)[C@H](C)[C@H]2N(CCCCn3cnc(-c4cccnc4)c3)C(=O)O[C@]12C : > 30 µM

Sure, the documented AC50 for C[N+](C)(C)C[C@H](O)CC(=O)[O-] is > 30 µM

// recorded AC50 for CC(C(=O)O)c1ccc(-c2ccccc2)c(F)c1 (stereo not drawn) : > 30 µM

====

molecular target: 5-hydroxytryptamine receptor 1A (Homo sapiens, UniProt P08908); type: functional, cell-based; further: assay procedure not described here
Sequence (P08908 whole entry): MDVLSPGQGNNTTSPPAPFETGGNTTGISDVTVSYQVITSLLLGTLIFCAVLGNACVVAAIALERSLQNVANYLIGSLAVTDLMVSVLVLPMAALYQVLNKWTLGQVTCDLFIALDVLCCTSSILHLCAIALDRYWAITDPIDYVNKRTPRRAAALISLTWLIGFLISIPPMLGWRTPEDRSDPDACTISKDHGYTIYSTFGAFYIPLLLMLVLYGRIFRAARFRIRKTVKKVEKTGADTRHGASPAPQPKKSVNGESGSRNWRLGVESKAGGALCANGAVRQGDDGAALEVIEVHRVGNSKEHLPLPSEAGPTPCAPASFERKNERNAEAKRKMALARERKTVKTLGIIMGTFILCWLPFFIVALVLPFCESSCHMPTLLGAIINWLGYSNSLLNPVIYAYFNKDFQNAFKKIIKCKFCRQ
measure: AC50

For the compound CCC(C)C(CC)C(N)=O (centres undefined) [VALNOCTAMIDE] , the measured AC50 on 5-hydroxytryptamine receptor 1A (Homo sapiens, UniProt P08908) was > 30 µM

AC50 on 5-hydroxytryptamine receptor 1A (Homo sapiens, UniProt P08908) for CC(C)COCC(CN(Cc1ccccc1)c1ccccc1)N1CCCC1 (centres undefined) is > 30 µM

// assay 5-hydroxytryptamine receptor 1A (Homo sapiens, UniProt P08908), entry Cc1cccc(N2CC(CO)OC2=O)c1 (centres undefined) , AC50 value = > 30 µM

Response field AC50 (5-hydroxytryptamine receptor 1A (Homo sapiens, UniProt P08908)) for item C[C@@H](Oc1cc(-c2cnn(C3CCNCC3)c2)cnc1N)c1c(Cl)ccc(F)c1Cl : > 10 µM

Noted AC50 for NC1CCN(c2nc3c(cc2F)c(=O)c(C(=O)O)cn3-c2ccc(F)cc2F)C1 (centres undefined) , tested on 5-hydroxytryptamine receptor 1A (Homo sapiens, UniProt P08908): > 30 µM

Here CCOC(=O)C1=C[C@]2(CC)CCCN3CCc4c(n1c1ccccc41)[C@@H]32 was tested on 5-hydroxytryptamine receptor 1A (Homo sapiens, UniProt P08908), and its AC50 came to > 30 µM

Note to self: AC50 of O=C(O)c1ccccc1Nc1cc(Cl)ccc1C(=O)O with 5-hydroxytryptamine receptor 1A (Homo sapiens, UniProt P08908) was > 30 µM

The recorded AC50 with 5-hydroxytryptamine receptor 1A (Homo sapiens, UniProt P08908) for CN1C(C(=O)Nc2ccccn2)=C(O)c2ccccc2S1(=O)=O was > 10 µM

Param item: OC[C@H]1O[C@@](CO)(O[C@H]2O[C@H](CO)[C@@H](O)[C@H](O)[C@H]2O)[C@@H](O)[C@@H]1O ; param system: 5-hydroxytryptamine receptor 1A (Homo sapiens, UniProt P08908); output AC50: > 30 µM
